Tested on: RET
Details: concentration: 1 μM, replicates: in singlicate; n = 1;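 further: KINOMEscan kinase panel screen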

molecule	%Inh
COc1cc2c(cc1OC[C@@H](O)CO)ncc1c3ccc(C#N)cc3[nH]c21	52%
Cc1cccc(Cn2ccn3c(=O)cc(N4CCOCC4)nc23)c1	13%
Nc1nc(-c2ccc3c(N)n[nH]c3c2)cc(N2CCCC2)n1	0%
Cc1nnc(-c2ccc(C)c(-c3ccc(C(=O)Nc4ccc(NS(C)(=O)=O)cc4)cc3)c2)o1	45%
Cc1cccc(-c2nc(-c3ccc(S(C)(=O)=O)cc3)sc2-c2ccncc2)c1	14%
CCCCCc1nc2c(N)ncnc2n1CCCCC	0%
COCCNC(=O)c1ccc(-c2cc(C(=O)NC3CC3)cc(F)c2C)cc1	0%
COc1ccc(CNC(=O)NC2CCN(c3ccnc(Nc4ccc(OC)cc4)n3)C2)cc1 (stereo not shown)	15%
Cc1nnc(-c2ccc3occ(-c4ccc(C(C)O)cc4)c3c2)o1 (stereo not shown)	11%
CCc1nc(-c2cccc(C)c2)c(-c2ccnc(NCc3ccccc3)c2)s1	4%
COc1ccc(Nc2ncc(C#N)c(Nc3ccccc3C(N)=O)n2)cc1N1CCN(C)CC1.Cl	99.9%
COC(=O)Nc1nc2cc(Oc3ccc(NC(=O)Nc4cc(F)ccc4F)cc3)ccc2[nH]1.Cl	95.1%
CN1c2ccc(CNc3ccc(F)cc3)cc2-c2c(cnn2C)S1(=O)=O	0%

---

Test system: RSK4(Kin.Dom.2-C-terminal)
Construct: gene RPS6KA6
Conditions: concentration: 1 μM, replicates: in singlicate; n = 1

compound	%Inh
O=c1cc(N2CCOCC2)nc2n(Cc3cccc(C(F)(F)F)c3)ccn12	13%
N#Cc1ccc(-c2cc(-c3c[nH]nc3-c3ccccn3)ccn2)cc1	28%
COc1cc2c(cc1OCCN1CCN(C)CC1)ncc1c3ccc(C#N)cc3[nH]c21	44%
O=C(c1ccc(-c2cc(-c3c[nH]nc3-c3ccccn3)ccn2)cc1)N1CCOCC1	24%
CCc1ccnc(/C=C/c2n[nH]c3cc(Sc4ccccc4C(=O)NC)ccc23)c1	12%
O=C1NC(=O)C(N2CCc3ccccc32)=C1c1cccc(Cl)c1	11%
COc1ccc(CNC(=O)NC2CCN(c3ccnc(Nc4ccc(OC)cc4)n3)C2)cc1 (stereo not drawn)	21%
Cc1cccc(Cn2ccn3c(=O)cc(N4CCOCC4)nc23)c1	42%
CC(C)(C)n1cnc2c(N)ncnc21	46%

---

Tested on: DMPK
Conditions: concentration: 1 μM, replicates: in singlicate; n = 1

molecule	assayed_system	%Inh [%]
CC(C)Oc1ccc2c(-c3ccnc(Nc4ccc(N5CCN(C)CC5)cc4)n3)cnn2n1	DMPK	74
N#Cc1ccc(-c2cc(-c3c[nH]nc3-c3ccccn3)ccn2)cc1	DMPK	0
COc1ccc(Nc2nccc(N3CCC(NC(=O)Nc4cc(C)ccc4C)C3)n2)cc1 (centres unmarked)	DMPK	0
COc1ccc(Nc2nccc(N3CCC(NC(=O)Nc4cccc(C(C)=O)c4)C3)n2)cc1 (centres unmarked)	DMPK	0
COCCNC(=O)c1ccc(-c2cc(C(=O)NC3CC3)cc(F)c2C)cc1	DMPK	20
Cc1ccc(C(=O)NCC(N)=O)cc1-n1c(C)cc(OCc2ccc(F)cc2F)c(Br)c1=O	DMPK	0
CNc1ncnc2[nH]ncc12	DMPK	0
COc1ccc(Nc2ncc(C#N)c(Nc3ccccc3C(N)=O)n2)cc1N1CCN(C)CC1.Cl	DMPK	88
COc1ccc(CNC(=O)NC2CCN(c3ccnc(Nc4ccc(OC)cc4)n3)C2)cc1 (centres unmarked)	DMPK	0
O=C(NCCNc1ccnc(Nc2ccc(F)cc2)n1)c1cc2ccccc2s1	DMPK	0
CCn1cnc2c(N)ncnc21	DMPK	0
NS(=O)(=O)c1cccc(-c2ccc3ncc(N4CCOCC4)nc3c2)c1	DMPK	0
Cc1cn2c(=O)cc(N3CCOCC3)nc2n1Cc1cccc(Cl)c1Cl	DMPK	12
O=C1Cc2cc(Nc3nc(NCc4cccc(S(=O)(=O)C(F)(F)F)c4)ncc3C(F)(F)F)ccc2N1	DMPK	5
